- Test system: M14 melanoma
- test: NCI-60 one-dose screen, 48 h
- conditionNotes: 10 µM unless noted
The panel holds about 83,000 compounds, 20% with a hit somewhere; the sample as a whole holds those more often. Activity calls are given as the source filed them. Rule for the calls: active = growth percent below 10; inactive = the rest.
Classes used: active, inactive

compound	assignedLabel
CCOC(=O)C1CN(Cc2ccccc2)C(=O)C1=O (stereo not drawn)	inactive
C[C@]12O[C@H]1[C@H](O)c1c(cc(O)c3c1C(=O)c1cccc(O)c1-3)C2=O	inactive
C=C1C(=O)O[C@H]2[C@H]1CC/C(C(=O)NCCOCCOCC(=O)Nc1ccc(OC)c(C(N)=O)c1O)=C\CC[C@@]1(C)O[C@@H]21	inactive
COc1ccc2c(c1)OC(N)=C(C#N)C2c1ccc(F)cc1 (stereo not drawn)	inactive
CN1CCN(Cn2nc(-c3cc(F)c(Cl)cc3Cl)n(/N=C/c3ccc(N(C)C)cc3)c2=S)CC1	inactive
Oc1ccc(O)c(-[n+]2ccccc2)c1	inactive
Cc1c(Cl)ccc2c(C(=O)Cl)cc(-c3ccccc3)nc12	inactive
COc1ccccc1N1CCN(CCCOc2ccc(OCCCN3CCN(c4ccccc4OC)CC3)c(C(=O)c3cc(OC)c(OC)c(OC)c3)c2)CC1	inactive
O=C(C[n+]1ccccc1Cl)c1ccc2c(c1)CCCC2	inactive
COc1cc2ncnc(Oc3ccc(NC(=O)Nc4ccc(CN5CCOCC5)c(C(F)(F)F)c4)c4ccccc34)c2cc1OC	inactive
CC(Cc1cccc(C(F)(F)F)c1)NCCOC(=O)c1ccccc1 (stereo not drawn)	inactive
COc1ccc(-c2nnc(SCC(=O)N3CCN(c4cc5c(cc4F)c(=O)c(C(=O)O)cn5C4CC4)CC3)o2)cc1OC	inactive
Cn1cnc([N+](=O)[O-])c1N1c2ccncc2Sc2ccncc21	inactive
CC(C)(C)OC(=O)N1CCN(CCn2cc(C(F)(F)F)c3c(Cl)ncnc32)CC1	inactive
CCCCOc1nc2ccc(Cl)cc2cc1/C=C/C(=O)/C=C/c1ccc(Cl)cc1	inactive
CN1C(=O)C2(SCC(C(=O)NCC(=O)OC(C)(C)C)N2C(=O)C2CCCCC2)c2ccccc21 (stereo not drawn)	inactive
O=C(Nc1ccc(-n2cc(-c3ccncc3)c(-c3ccc(O)c(Cl)c3)n2)cc1)Nc1cc(C(F)(F)F)cc(C(F)(F)F)c1	inactive
C/C(=N/O)c1ccc(NC(=O)Cn2nc(-c3ccc(Cl)cc3)nc2N)cc1	inactive
COc1ccc(/C(=C/c2cc(OC)c(OC)c(OC)c2)[N+](=O)[O-])cc1	active
Nc1ncc(-c2ccc3ncnc(Nc4cncc(Cl)c4)c3c2)cn1	inactive
C=C1C(=O)O[C@H]2[C@H]1CC/C(COC(=O)c1ccc(Br)cc1)=C\CC[C@@]1(C)O[C@@H]21	active
COc1ccc(-c2nn(-c3ccc(NC(=O)Nc4ccc(Cl)c(Cl)c4)cc3)cc2-c2ccncc2)cc1Cl	active
CC1(C)Cc2c(Br)c(Br)c(Br)c(OCC(O)CN3CCN(c4ccccn4)CC3)c2O1 (stereo not drawn)	inactive
Nc1nc(Nc2ccc(OCc3cccc(F)c3)cc2)c2c(n1)[nH]c1ccc(O)cc12	active
O=C(NC(=S)Nc1ccc(Cl)cc1)c1ccccc1	inactive
COc1ccc2c(c1)OC(N(C(C)=O)C(C)=O)=C(C#N)C2c1ccc(F)cc1 (stereo not drawn)	inactive
C=C1C(=O)O[C@H]2[C@H]1CC/C(COC(=O)CCCC(=O)OC/C1=C/CC[C@@]3(C)O[C@H]3[C@H]3OC(=O)C(=C)[C@@H]3CC1)=C\CC[C@@]1(C)O[C@@H]21	active
Cn1c(I)c(C#C[Si](C)(C)C)c(=O)[nH]c1=O	active
S=c1[nH]nc(Cn2c3ccccc3c3ccncc32)o1	inactive
COc1ccc(-c2nnc(SCC(=O)Nc3ccc(C(=O)/C=C/c4ccccc4)cc3)o2)cc1OC	inactive
O=C(Nc1cccc([N+](=O)[O-])c1)Nc1cccc([N+](=O)[O-])c1	inactive
Nc1nccc2c1ccn2-c1cccc(NC(=O)c2ccc(N3CCOCC3)c(C(F)(F)F)c2)c1	inactive
CCCCCCCC(=O)SCC/C=C/[C@@H]1CC(=O)NCc2nc(cs2)C2=N[C@@](C)(CS2)C(=O)N[C@@H](C(C)C)C(=O)N1	inactive

* * *

- Tested on: K-562 leukemia
- test: NCI-60 one-dose screen, 48 h (100 = growth as untreated, 0 = no growth, -100 = all killed)
- conditionNotes: 10 µM unless noted
This is part of a sample that, as a whole, favours compounds with a hit. Of some 83,000 tested, about 20% had one in any assay.

compound	unitSpec	growth
CCOC(=O)C1CSC(C)(C(=O)OCC)N1 (stereo not given)	%	103
COc1ccc(-c2nn(-c3ccc(NC(=O)Nc4ccc(Cl)c(C(F)(F)F)c4)cc3)cc2-c2ccncc2)cc1Cl	%	10.3
CC(=O)Cc1cccnc1	%	86.7
CC(C)NCC(O)COc1ccc(CC(N)=O)cc1 (stereo not given)	%	96.6
CC1=C[S+](c2ccccc2)c2cccc3cc4ccccc4c1c23 (stereo not given)	%	-27.2
CCc1c(C)c2cc3c(c(C)c2oc1=O)OCC(=O)N3	%	82.5
CSc1ccc(C(=O)C[n+]2cccc(C)c2)cc1	%	102
Nc1nc(=S)ss1	%	98.1
Cc1cc(SCc2ccc(Cl)cc2Cl)nc(SCc2ccc(Cl)cc2Cl)n1	%	110
O=C1c2ccccc2OC=C(c2ccccc2)N1CCCCN1CCCCC1	%	15.6
COc1cc(C(=O)NNC(=O)c2ccccc2C(=O)O)cc(OC)c1OC	%	43.1
CCOC(=O)C(C)(CSSCC(C)(NC(=O)c1ccc2ccccc2c1)C(=O)OCC)NC(=O)c1ccc2ccccc2c1 (stereo not given)	%	91.1
COc1cc(-c2nc3ccccc3s2)ccc1OCc1nc2n(n1)S(=O)(=O)c1ccccc1N2C	%	71.1
c1nc(SC2=NCCN2)c2[nH]cnc2n1	%	14.3
Cc1cc(C)c(O)c(C(=O)CC(Br)C(=O)O)c1 (stereo not given)	%	84.5

* * *

- Tested on: NCI-H460 lung
- test: NCI-60 one-dose screen, 48 h (100 = growth as untreated, 0 = no growth, -100 = all killed)
- conditionNotes: 10 µM unless noted
About 83,000 compounds went through this panel and 20% of them were active in at least one assay; those are over-represented in the sample as a whole. Calls of active or inactive are those of the source. Rule for the calls: active = growth percent below 10; inactive = the rest.
Entries and their growth values follow.

molecule	growth
Nc1nc(-c2cc3c(cc2Cl)NC(=O)/C3=C/c2ccccc2)cs1	56.8% (inactive)
C=CCn1c(SCC(=O)Nc2ccc(/C(C)=N\O)cc2)nnc1-c1cc(-c2ccc(OC)cc2)nc2ccccc12	27.8% (inactive)
c1nc(SC2=NCCN2)c2[nH]cnc2n1	66.5% (inactive)
O=C(O)c1ccccc1C(=O)c1ccc(I)cc1	105% (inactive)
CNCCCOc1c(Br)cc(CCNC(=O)/C(Cc2cc(Br)c(OC)c(Br)c2)=N/O)cc1Br	-44.7% (active)
COc1cc2ncnc(Oc3ccc(NC(=O)Nc4ccc(CN5CCOCC5)c(C(F)(F)F)c4)c4ccccc34)c2cc1OC	25.4% (inactive)
O=C1OC(=O)C2C3CC(c4ccccc43)C12 (configuration not stated)	113% (inactive)
COc1cccc(-c2nc3sccn3c2-c2ccnc(NCCNC(=O)c3ccccc3)n2)c1	84.9% (inactive)
COc1cc(NC(C)CCCN2C(=O)c3ccccc3C2=O)c2nc(C)ccc2c1OC (configuration not stated)	103% (inactive)
CCN(CC)c1ccc(C2CC(c3cc(OC)c(OC)c(OC)c3)=NN2)cc1 (configuration not stated)	2.68% (active)
OC(COc1ccccc1Cl)CN1CCN(c2ccc(Cl)cc2)CC1 (configuration not stated)	104% (inactive)
O=C(Nc1ccc(-n2cc(-c3ccncc3)c(-c3ccc(O)c(Cl)c3)n2)cc1)c1cc(C(F)(F)F)cc(C(F)(F)F)c1	45% (inactive)
C=C(C)[C@@H]1C/C=C(\COC(=O)[C@H](OC(C)=O)C(NC(=O)c2ccccc2)c2ccccc2)CC[C@H]2O[C@]2(C)CC/C=C(\C)CC1 (some centres not stated)	64.2% [5 µM] (inactive)
CCC1S/C(=N\N=C(/C)c2cc3ccccc3o2)N(c2ccccc2)C1=O (configuration not stated)	123% (inactive)
OCCOCC(F)(F)F	108% (inactive)
CCCCCn1ncc(-c2c(O)c(O)cc3c(O)c(-c4c(C)cc5c(-c6cnn(CCCCC)n6)c(O)c(O)cc5c4O)c(C)cc23)n1	-3.01% (active)
CC(/C=C/C=C(\C)[C@H](O)[C@H](C)C(=O)O[C@H]1C[C@H](C)C=C2C=C[C@@]3(C)O[C@@H](O)CC(=O)[C@]3(C)[C@H]21)=C\C=C\C(=O)O	2.9% (active)
CCCCCC/C=N/Nc1ccc([N+](=O)[O-])cn1	112% (inactive)
CCOC(=O)c1cnc2c(OC)ccc(OC)c2c1Cl	108% (inactive)
CCN1CCN(Cc2ccc(NC(=O)Nc3cccc(-n4ccc5c(NC(=O)c6ccccc6)nccc54)c3)cc2C(F)(F)F)CC1	96.3% (inactive)
COc1cc2nc(C(=O)N3CCCCC3)cc(Nc3ccccc3)c2cc1OC	102% (inactive)
CCNC(=O)Oc1ccc(/C(=C(/CC)Cc2ccccc2)c2ccc(OCCN3CCOCC3)cc2)cc1	44.7% (inactive)
COc1ccc(N)c(S)c1	106% (inactive)
CCOC(=O)C1CN(Cc2ccccc2)C(=O)C1=O (configuration not stated)	106% (inactive)
O=C(Nc1ccc(-n2cc(-c3ccncc3)c(-c3ccc(O)c(Cl)c3)n2)cc1)Nc1ccc(Cl)c(C(F)(F)F)c1	-1.85% (active)
CCCCOc1nc2ccc(Cl)cc2cc1/C=C/C(=O)/C=C/c1ccc(OC)cc1	98.4% (inactive)
c1ccc2nc(Cn3cc[n+](Cc4ccc5ccccc5n4)c3)ccc2c1	77.7% (inactive)
O=C(Nc1ccc(-n2ccc3c(NC(=O)c4ccccc4)ncnc32)cc1)c1ccc(Cl)c(C(F)(F)F)c1	-30.5% (active)
COC(=O)c1oc2c(C(C)=O)c(OCCCN(C)C)ccc2c1C	118% (inactive)
NN=C(c1ccc(Cl)cc1)c1ccc(Cl)cc1	111% (inactive)
COc1ccc(-c2cc3ccc(N(C)C)cc3nc2N)c(F)c1	31.9% (inactive)
COc1ccc(C2=NN(C(=O)COc3ccc(Cl)cc3)C(O)(c3cc(F)c(Cl)cc3Cl)C2)cc1OC (configuration not stated)	32.9% (inactive)
